// each record: one item and its pIC50 for CLK3 (Homo sapiens (Human), UniProt P49761)
Value format note: pIC50 is -log10 of concentration (mol/L); just state the number.

{"molecule": "C[C@H]1CN(C)Cc2c(c(O)nn2CCO)/C=C/c2n[nH]c3ccc(cc23)-c2cnn(C)c2O1 [Example 186]", "assayedTarget": "CLK3 (Homo sapiens (Human), UniProt P49761)", "parameter": "pIC50", "measuredNumber": 6.90}
{"molecule": "Cc1noc2c1/C=C/c1n[nH]c3ccc(cc13)-c1cnn(C)c1OCCOC2 [Example 321]", "assayedTarget": "CLK3 (Homo sapiens (Human), UniProt P49761)", "parameter": "pIC50", "measuredNumber": 8.72}
{"molecule": "CC(=O)N1CCOc2c(cnn2C)-c2ccc3[nH]nc(c3c2)/C=C/c2c(nn(C)c2C)C1 [Example 52]", "assayedTarget": "CLK3 (Homo sapiens (Human), UniProt P49761)", "parameter": "pIC50", "measuredNumber": 6.83}

Provide CLK3 (Homo sapiens (Human), UniProt P49761) pIC50 reading for CCN1Cc2c(c(OC(C)C)nn2CCO)/C=C/c2n[nH]c3cc(F)c(cc23)-c2cnn(C)c2O[C@@H](C)C1 [Example 216] .
6.94

Identify measured pIC50 obtained with CLK3 (Homo sapiens (Human), UniProt P49761) for C[C@@H](C#N)Oc1nn(CCO)c2c1/C=C/c1n[nH]c3cc(F)c(cc13)-c1cnn(C)c1O[C@@H](C)CN(C)C2 [Ex. 269] .
Sequence (P49761 whole entry): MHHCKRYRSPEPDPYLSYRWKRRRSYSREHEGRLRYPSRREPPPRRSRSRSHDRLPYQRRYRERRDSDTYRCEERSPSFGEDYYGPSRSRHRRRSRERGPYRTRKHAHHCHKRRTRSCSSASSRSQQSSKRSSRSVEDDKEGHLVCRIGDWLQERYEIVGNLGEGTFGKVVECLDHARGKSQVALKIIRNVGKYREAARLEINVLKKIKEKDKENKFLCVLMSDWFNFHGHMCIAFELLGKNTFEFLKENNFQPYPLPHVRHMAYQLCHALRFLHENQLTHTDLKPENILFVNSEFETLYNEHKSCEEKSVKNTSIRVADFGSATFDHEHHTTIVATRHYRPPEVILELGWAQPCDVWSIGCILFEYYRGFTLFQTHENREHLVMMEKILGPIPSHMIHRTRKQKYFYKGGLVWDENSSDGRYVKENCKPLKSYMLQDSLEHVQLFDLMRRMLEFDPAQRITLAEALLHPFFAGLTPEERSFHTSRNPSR
6.62

Lab note: CLK3 (Homo sapiens (Human), UniProt P49761) assay, enter pIC50 for CCOc1nn(CCO)c2c1/C=C/c1n[nH]c3ccc(cc13)-c1c(C)nn(C)c1O[C@@H](C)CN(C(C)C)C2 [Example 142] here
6.00

Determine reported pIC50 for CCOc1nn(CCO)c2c1/C=C/c1n[nH]c3cc(F)c(cc13)-c1cnn(C)c1O[C@@H]1CCCN(C2)C1 [Example 191] ; test system: CLK3 (Homo sapiens (Human), UniProt P49761).
7.36

###

assayedTarget: EGFR L858R mutant (Homo sapiens (Human), UniProt P00533, L858R)
Sequence (P00533 25-1210 L858R): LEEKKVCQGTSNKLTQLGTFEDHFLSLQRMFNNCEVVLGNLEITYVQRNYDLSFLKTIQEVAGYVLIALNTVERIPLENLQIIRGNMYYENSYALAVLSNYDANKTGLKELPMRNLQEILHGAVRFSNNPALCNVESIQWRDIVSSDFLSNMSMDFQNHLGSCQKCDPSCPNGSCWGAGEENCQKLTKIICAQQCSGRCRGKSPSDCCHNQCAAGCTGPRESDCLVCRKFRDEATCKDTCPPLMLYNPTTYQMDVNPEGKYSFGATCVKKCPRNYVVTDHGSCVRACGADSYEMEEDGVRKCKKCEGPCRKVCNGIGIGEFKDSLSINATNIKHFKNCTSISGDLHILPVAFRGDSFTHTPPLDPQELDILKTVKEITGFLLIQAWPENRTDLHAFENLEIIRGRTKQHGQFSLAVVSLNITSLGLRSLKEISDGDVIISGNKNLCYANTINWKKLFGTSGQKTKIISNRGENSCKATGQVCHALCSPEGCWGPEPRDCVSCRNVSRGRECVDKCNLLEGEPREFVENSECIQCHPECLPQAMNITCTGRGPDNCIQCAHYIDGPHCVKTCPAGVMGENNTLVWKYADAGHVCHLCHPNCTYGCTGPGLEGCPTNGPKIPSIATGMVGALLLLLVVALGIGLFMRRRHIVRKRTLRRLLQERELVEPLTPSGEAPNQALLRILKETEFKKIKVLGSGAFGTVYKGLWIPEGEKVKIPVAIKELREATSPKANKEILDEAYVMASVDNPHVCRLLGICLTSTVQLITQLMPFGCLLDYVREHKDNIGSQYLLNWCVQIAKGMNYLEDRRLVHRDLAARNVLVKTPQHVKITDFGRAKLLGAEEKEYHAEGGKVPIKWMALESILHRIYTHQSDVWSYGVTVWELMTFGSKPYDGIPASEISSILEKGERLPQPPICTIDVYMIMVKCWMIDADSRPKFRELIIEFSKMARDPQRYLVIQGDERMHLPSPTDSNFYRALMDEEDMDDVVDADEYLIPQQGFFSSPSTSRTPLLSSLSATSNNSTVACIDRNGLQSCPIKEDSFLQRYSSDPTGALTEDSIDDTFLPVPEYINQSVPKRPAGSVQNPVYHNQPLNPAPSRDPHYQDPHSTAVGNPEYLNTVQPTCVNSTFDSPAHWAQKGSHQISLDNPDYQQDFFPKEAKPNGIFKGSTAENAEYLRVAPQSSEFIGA
assayRemarks: HotSpot radiometric kinase assay, EGFR L858R mutant
testContext: 10 μM ATP
parameter: IC50 (nM)
Value expressed in nM; do not type the unit.

Field: example entries. Status: answers known.
{"compoundSmiles": "C[C@H]1CN(C)Cc2c(c(OC3CN(S(C)(=O)=O)C3)nn2C)/C=C/c2n[nH]c3ccc(cc23)-c2cnn(C)c2O1", "IC50, nM": 2.31}
{"compoundSmiles": "Cn1ncc2c1OCCN1CC[C@@H](Oc3ccc(F)cc3/C=C/c3n[nH]c4ccc-2cc34)C1=O", "IC50, nM": 157}

Look up and report measured IC50 for this entry: "Cc1nn(CCO)c2c1/C=C/c1n[nH]c3cc(F)c(cc13)-c1cnn(C)c1O[C@@H](C)CN(C)C2"
0.58

Tell us which IC50 value is on record for "CCOc1nn([C@@H](C)CO)c2c1/C=C/c1n[nH]c3cc(F)c(cc13)-c1cnn(C)c1OC[C@H](C)N(C(C)C)C2"
25.2

Answer with reported IC50 of "CCOc1nn(CCO)c2c1/C=C/c1n[nH]c3ccc(cc13)-c1cnn(C)c1O[C@@H](C)CN(C(C)C)C2"
0.22

Look up and state reported IC50 for "CC(C)Oc1nn(CCO)c2c1/C=C/c1n[nH]c3ccc(cc13)-c1cnn(C)c1O[C@@H](C)[C@H]1CCCN1C2"
2.38

###

assayedTarget: EGFR Δ746-750 mutant (Homo sapiens (Human), UniProt P00533, DEL746-750)
Sequence (P00533 other isoform, or with tags, fused parts or gaps del 1-668/del 746-750 limits assumed): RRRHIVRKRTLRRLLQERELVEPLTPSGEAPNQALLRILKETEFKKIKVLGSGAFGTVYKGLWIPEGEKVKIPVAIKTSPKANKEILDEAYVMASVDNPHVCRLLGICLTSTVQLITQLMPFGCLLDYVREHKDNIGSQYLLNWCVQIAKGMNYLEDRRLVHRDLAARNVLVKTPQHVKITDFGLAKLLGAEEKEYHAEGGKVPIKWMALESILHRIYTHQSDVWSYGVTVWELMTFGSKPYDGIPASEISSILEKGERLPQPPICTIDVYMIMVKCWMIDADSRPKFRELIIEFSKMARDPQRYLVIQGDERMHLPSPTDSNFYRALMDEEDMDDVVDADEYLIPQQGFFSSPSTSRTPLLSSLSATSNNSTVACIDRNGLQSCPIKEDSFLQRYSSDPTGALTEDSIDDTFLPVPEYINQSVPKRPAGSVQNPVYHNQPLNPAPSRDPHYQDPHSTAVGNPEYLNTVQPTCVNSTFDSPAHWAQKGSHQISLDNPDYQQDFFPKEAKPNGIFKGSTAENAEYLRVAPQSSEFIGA
assayRemarks: HotSpot radiometric kinase assay, EGFR Δ746-750 mutant
testContext: 10 μM ATP
parameter: IC50 (nM)
Report as a plain number; the unit nM is understood.

{"molecule": "Cc1c2c(nn1C)CN(C)C[C@H](C)Oc1c(cnn1C)-c1ccc3[nH]nc(c3c1)/C=C/2", "assayedTarget": "EGFR Δ746-750 mutant (Homo sapiens (Human), UniProt P00533, DEL746-750)", "parameter": "IC50", "measuredNumber": 11.1}
{"molecule": "Cc1nn(C)c2c1/C=C/c1n[nH]c3ccc(cc13)-c1cnn(C)c1O[C@@H](C)CN(C)[C@@H]2C (single isomer, unassigned)", "assayedTarget": "EGFR Δ746-750 mutant (Homo sapiens (Human), UniProt P00533, DEL746-750)", "parameter": "IC50", "measuredNumber": 1.88}
{"molecule": "CC(C)Oc1nn(CCO)c2c1/C=C/c1n[nH]c3cc(F)c(cc13)-c1cnn(C)c1O[C@H](C)[C@H]1CCCN1C2 (single isomer, unassigned)", "assayedTarget": "EGFR Δ746-750 mutant (Homo sapiens (Human), UniProt P00533, DEL746-750)", "parameter": "IC50", "measuredNumber": 0.95}
{"molecule": "COCc1nn(CCO)c2c1/C=C/c1n[nH]c3ccc(cc13)-c1cnn(C)c1O[C@@H](C)CN(C)C2", "assayedTarget": "EGFR Δ746-750 mutant (Homo sapiens (Human), UniProt P00533, DEL746-750)", "parameter": "IC50", "measuredNumber": 23.5}

Now consider the entry below.
Given "CCOc1nn(CC(C)(C)O)c2c1/C=C/c1n[nH]c3ccc(cc13)-c1cnn(C)c1O[C@@H](C)CN(CC)C2" , respond with its IC50.
1.77

###

pIC50: recorded values
assayedTarget: EGFR L858R/T790M mutant (Homo sapiens (Human), UniProt P00533, L858R/T790M)
Sequence (P00533 25-1210 T790M/L858R): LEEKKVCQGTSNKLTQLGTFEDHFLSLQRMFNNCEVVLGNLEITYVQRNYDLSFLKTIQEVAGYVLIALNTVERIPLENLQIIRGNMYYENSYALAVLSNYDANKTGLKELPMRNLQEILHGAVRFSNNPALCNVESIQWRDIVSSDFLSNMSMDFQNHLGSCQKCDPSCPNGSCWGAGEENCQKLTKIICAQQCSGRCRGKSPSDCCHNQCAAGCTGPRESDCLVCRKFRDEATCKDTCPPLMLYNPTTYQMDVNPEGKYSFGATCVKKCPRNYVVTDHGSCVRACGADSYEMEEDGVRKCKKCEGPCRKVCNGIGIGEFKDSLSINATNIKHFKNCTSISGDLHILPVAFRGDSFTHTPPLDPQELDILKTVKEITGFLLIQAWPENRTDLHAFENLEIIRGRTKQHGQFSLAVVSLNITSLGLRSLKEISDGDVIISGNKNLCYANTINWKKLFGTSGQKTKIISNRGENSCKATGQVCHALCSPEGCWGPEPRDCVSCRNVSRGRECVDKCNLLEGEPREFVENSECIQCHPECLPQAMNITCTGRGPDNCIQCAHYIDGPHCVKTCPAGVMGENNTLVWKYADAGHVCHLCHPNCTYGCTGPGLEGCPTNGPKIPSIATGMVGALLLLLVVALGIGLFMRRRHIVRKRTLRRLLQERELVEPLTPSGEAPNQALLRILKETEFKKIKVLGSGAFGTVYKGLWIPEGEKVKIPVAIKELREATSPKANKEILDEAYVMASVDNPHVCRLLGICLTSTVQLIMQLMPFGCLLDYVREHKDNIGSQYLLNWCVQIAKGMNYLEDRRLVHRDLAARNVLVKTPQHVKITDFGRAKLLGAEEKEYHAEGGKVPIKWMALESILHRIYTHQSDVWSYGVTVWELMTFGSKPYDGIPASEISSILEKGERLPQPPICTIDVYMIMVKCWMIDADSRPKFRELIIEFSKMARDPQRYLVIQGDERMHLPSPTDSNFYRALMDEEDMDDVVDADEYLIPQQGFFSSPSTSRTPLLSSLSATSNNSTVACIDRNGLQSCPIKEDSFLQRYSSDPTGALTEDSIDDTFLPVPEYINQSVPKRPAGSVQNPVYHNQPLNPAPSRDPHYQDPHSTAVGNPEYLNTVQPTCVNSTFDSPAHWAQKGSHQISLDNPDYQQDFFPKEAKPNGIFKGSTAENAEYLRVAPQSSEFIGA
assayRemarks: HotSpot radiometric kinase assay, EGFR L858R/T790M mutant
testContext: 10 μM ATP
Description: Biochemical Assays for Inhibition of Wild-Type and Mutant EGFRs Briefly, specific kinase/substrate pairs along with required cofactors were prepared in reaction buffer; 20 mM Hepes pH 7.5, 10 mM […], 1 mM EGTA, 0.02% Brij35, 0.02 mg/ml BSA, 0.1 mM Na3VO4, 2 mM DTT, 1% DMSO. Compounds were delivered into the reaction, followed […] later by addition of a mixture of ATP (Sigma, St. Louis MO) and ^33P ATP (Perkin Elmer, Waltham MA) to a final concentration of 10 μM. […]
The scale used: pIC50 is minus the common logarithm of the concentration in molar units.

{"molecule": "Cc1nn(C)c2c1/C=C/c1n[nH]c3ccc(cc13)-c1cnn(C)c1CN(C)[C@@H](C)CO2", "pIC50": 8.60}

Output measured pIC50 for this item: "Cc1c2c(nn1[C@H]1C[C@@H](NCCN(C)C)C1)OCCCOc1c(cnn1C)-c1ccc3[nH]nc(c3c1)/C=C/2"
8.64

Quote pIC50 reported for Cc1nn(C2CCN(C)C2)c2c1/C=C/c1n[nH]c3ccc(cc13)-c1cnn(C)c1CN(C)CCO2 (stereo not shown) please.
8.33

State, in one line, measured pIC50 of "CC(C)Oc1nn(CCO)c2c1/C=C/c1n[nH]c3ccc(cc13)-c1cnn(C)c1O[C@H](C)CN(C(C)C)C2"
8.62

Return pIC50 for the following molecule: "CCOc1nn([C@@H](C)CO)c2c1/C=C/c1n[nH]c3cc(F)c(cc13)-c1cnn(C)c1O[C@@H](C)CN(CC)C2"
8.83

###

assayedTarget: CLK1 (Homo sapiens (Human))
Sequence (P49759 whole entry): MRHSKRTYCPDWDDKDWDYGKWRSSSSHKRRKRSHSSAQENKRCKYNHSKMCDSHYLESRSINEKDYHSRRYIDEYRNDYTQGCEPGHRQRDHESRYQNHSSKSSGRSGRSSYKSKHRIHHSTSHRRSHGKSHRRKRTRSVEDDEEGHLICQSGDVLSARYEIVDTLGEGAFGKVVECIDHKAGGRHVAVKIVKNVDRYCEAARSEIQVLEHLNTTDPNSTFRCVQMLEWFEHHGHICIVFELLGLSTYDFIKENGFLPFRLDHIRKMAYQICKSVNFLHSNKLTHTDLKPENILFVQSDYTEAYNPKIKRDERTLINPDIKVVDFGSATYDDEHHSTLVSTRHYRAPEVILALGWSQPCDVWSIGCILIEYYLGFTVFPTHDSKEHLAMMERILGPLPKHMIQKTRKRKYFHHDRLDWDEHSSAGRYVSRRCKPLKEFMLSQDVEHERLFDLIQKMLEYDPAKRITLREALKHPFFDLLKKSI
This listing pairs compounds with measured pIC50.
Conceptually, pIC50 converts a concentration in mol/L into minus its log10.

Please review the following examples before continuing.
{"compoundSmiles": "C[C@H]1CN(C)Cc2c(c(O)nn2CCO)/C=C/c2n[nH]c3ccc(cc23)-c2cnn(C)c2O1", "assayedTarget": "CLK1 (Homo sapiens (Human))", "pIC50": 9.62}
{"compoundSmiles": "Cc1nn(C)c2c1/C=C/c1n[nH]c3ccc(cc13)-c1cnn(C)c1O[C@@H](C)CN(C)C2", "assayedTarget": "CLK1 (Homo sapiens (Human))", "pIC50": 9.92}
{"compoundSmiles": "Cc1c2c(nn1C)CN(C)C[C@H](C)Oc1c(cnn1C)-c1ccc3[nH]nc(c3c1)/C=C/2", "assayedTarget": "CLK1 (Homo sapiens (Human))", "pIC50": 9.70}
{"compoundSmiles": "CCOc1nccc2c1/C=C/c1n[nH]c3ccc(cc13)-c1cnn(C)c1O[C@@H](C)CN(C)C2", "assayedTarget": "CLK1 (Homo sapiens (Human))", "pIC50": 8.95}
{"compoundSmiles": "CCOc1nn(C)c2c1/C=C/c1n[nH]c3cc(F)c(cc13)-c1cnn(C)c1O[C@@H](C)CN(CC)C2", "assayedTarget": "CLK1 (Homo sapiens (Human))", "pIC50": 8.78}

Supply pIC50 measured with CLK1 (Homo sapiens (Human)) for "CC(C)Oc1nn(CCO)c2c1/C=C/c1n[nH]c3cc(F)c(cc13)-c1cnn(C)c1O[C@H](C)CN(C(C)C)C2" .
7.44

// output pIC50; input "C#Cc1nn(C)c2c1-c1ccc3[nH]nc(c3c1)/C=C/c1c(OCC)nn(CCO)c1CN(C)C[C@H](C)O2" ; system CLK1 (Homo sapiens (Human))
9.00
